# STUDY SYSTEM: KAT6A (Homo sapiens (Human), UniProt Q92794)
# Sequence (Q92794 whole entry): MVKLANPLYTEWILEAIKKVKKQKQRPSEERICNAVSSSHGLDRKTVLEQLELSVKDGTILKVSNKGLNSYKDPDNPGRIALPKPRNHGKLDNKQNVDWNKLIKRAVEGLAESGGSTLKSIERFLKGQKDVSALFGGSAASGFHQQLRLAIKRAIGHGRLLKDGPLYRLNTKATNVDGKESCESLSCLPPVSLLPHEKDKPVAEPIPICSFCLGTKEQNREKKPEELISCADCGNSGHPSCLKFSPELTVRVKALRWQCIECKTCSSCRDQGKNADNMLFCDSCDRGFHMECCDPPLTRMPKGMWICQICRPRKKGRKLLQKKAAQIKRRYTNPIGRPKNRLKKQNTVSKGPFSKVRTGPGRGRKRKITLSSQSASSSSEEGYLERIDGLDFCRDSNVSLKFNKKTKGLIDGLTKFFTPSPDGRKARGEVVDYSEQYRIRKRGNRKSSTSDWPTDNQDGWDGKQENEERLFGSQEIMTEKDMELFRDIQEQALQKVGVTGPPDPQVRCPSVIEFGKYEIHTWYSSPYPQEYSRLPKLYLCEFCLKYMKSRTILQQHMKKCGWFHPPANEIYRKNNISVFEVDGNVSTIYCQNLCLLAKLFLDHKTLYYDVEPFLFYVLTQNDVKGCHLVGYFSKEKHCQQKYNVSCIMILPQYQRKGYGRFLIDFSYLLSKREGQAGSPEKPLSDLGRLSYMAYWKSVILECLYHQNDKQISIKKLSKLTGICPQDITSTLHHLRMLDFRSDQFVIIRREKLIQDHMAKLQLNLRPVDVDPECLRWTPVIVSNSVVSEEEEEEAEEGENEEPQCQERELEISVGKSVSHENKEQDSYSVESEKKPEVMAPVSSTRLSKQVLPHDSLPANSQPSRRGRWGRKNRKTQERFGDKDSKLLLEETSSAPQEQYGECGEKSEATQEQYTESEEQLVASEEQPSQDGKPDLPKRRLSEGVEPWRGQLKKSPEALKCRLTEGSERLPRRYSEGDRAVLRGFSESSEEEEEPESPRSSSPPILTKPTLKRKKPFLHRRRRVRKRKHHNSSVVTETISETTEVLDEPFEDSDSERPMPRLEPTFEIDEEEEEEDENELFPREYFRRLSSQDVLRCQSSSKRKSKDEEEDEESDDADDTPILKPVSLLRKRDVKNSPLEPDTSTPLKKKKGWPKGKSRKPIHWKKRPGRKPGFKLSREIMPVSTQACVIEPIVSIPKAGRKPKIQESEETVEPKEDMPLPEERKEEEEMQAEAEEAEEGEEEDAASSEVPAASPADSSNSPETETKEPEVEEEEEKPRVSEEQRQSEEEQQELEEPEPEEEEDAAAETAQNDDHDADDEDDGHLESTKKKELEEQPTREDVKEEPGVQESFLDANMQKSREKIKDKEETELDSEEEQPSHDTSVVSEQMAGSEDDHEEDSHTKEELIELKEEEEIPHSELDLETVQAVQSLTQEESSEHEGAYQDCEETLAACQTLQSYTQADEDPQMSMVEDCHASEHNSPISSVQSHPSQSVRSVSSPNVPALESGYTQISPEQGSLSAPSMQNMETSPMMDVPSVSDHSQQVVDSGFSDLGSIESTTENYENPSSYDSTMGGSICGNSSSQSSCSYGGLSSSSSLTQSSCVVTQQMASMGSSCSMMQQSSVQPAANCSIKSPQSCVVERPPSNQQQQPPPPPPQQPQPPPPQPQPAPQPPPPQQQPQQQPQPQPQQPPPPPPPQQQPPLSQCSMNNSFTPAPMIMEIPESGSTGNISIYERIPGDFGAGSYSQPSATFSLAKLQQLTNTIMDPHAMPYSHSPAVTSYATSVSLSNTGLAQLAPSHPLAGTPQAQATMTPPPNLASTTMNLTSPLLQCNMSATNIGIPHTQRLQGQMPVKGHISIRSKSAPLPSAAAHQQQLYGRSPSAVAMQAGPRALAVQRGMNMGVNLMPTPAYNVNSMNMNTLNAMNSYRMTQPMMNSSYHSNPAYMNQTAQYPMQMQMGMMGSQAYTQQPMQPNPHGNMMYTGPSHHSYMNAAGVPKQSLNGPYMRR
# TEST PROTOCOL: KAT assay (SAMDI mass spectrometry), KAT6A;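 also: Baculovirus-expressed KAT6A acetylating histone H3 (1-21) peptide (2 µM), 30-60 min at room temperature, % product conversion fitted to Morrison equation for tight-binding competitive inhibitors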
# Type: biochemical
# CONDITION NOTES: KAT6a Ki at 1 μM AcCoA, 1 μM AcCoA
METRIC: Ki (µM)

As a guide, the following entries are already answered.
COc1cccc(OC)c1S(=O)(=O)Nc1noc2cc(C(O)c3cc[nH]n3)cc(OC)c12 (single isomer, unassigned) [Example 117] | 0.202
COc1cccc(OC)c1S(=O)(=O)Nc1noc2cc(C(O)c3ccon3)cc(OC)c12 (single isomer, unassigned) [Example 113] | 0.014
COc1cccc(OC)c1S(=O)(=O)Nc1noc2cc(Cc3ncco3)cc(OC)c12 | 0.0025
COc1cccc(OC)c1S(=O)(=O)Nc1noc2cc(Cn3cc(C)cn3)cc(OC)c12 | 0.0403

(1) COc1cccc(OC)c1S(=O)(=O)Nc1noc2cc(C(O)c3cnoc3)cc(OC)c12 (single isomer, unassigned) [Example 120]
(2) COc1cccc(OC)c1S(=O)(=O)Nc1noc2cc(C(O)c3ncccn3)cc(OC)c12 (single isomer, unassigned)
(3) COc1ccccc1S(=O)(=O)Nc1noc2cc(Cn3cccn3)cc(OC)c12
(4) COc1cccc(OC)c1S(=O)(=O)Nc1noc2cc(C(O)c3ncco3)cc(OC)c12 (single isomer, unassigned) [Example 108]
List by increasing Ki. API: response body holds the labels in the requested order. 3, 4, 1, 2

(P) COc1cccc(OC)c1S(=O)(=O)Nc1noc2cc(C(O)c3cnoc3)cc(OC)c12 (single isomer, unassigned) [Example 121]
(Q) COc1cccc(OC)c1S(=O)(=O)Nc1noc2cc(C(O)c3cocn3)cc(OC)c12 (single isomer, unassigned)
(R) COc1cccc(OC)c1S(=O)(=O)Nc1noc2cc(C(O)c3ccon3)cc(OC)c12 (single isomer, unassigned) [Example 112]
(S) COc1cccc(OC)c1S(=O)(=O)Nc1noc2cc(C(O)c3ncco3)cc(OC)c12 (single isomer, unassigned) [Example 109]
List by increasing Ki. Respond with the label ranking, as requested. S, R, Q, P
(S: 0.044 µM, R: 0.082 µM, Q: 0.23 µM, P: 1.58 µM)

====

# STUDY SYSTEM: KAT7 (Homo sapiens (Human))
# Sequence (O95251 whole entry): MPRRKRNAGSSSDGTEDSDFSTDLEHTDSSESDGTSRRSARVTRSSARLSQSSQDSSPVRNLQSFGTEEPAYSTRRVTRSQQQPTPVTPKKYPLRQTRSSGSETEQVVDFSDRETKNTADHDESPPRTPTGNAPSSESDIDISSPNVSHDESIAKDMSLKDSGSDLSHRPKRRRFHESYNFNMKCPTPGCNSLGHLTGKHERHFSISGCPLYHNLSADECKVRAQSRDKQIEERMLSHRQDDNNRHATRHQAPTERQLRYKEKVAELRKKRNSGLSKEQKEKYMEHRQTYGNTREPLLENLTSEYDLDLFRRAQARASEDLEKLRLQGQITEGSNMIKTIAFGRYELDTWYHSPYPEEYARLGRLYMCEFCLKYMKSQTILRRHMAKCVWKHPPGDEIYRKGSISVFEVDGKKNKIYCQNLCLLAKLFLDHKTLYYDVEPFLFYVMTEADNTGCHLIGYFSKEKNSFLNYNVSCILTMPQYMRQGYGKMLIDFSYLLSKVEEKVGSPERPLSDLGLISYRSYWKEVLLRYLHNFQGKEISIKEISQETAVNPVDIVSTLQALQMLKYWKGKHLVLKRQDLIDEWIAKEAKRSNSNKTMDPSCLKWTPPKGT
# TEST PROTOCOL: KAT assay (SAMDI mass spectrometry), KAT7
# Assay type: biochemical
# CONDITION NOTES: read-out: KAT7 Ki at 1 μM AcCoA
METRIC: Ki (nM)

// below: answered compounds
COc1cccc(OC)c1S(=O)(=O)Nc1noc2cc(Cn3cccn3)cc(C3CC3)c12 | 900
COCc1ccc(OC)c(S(=O)(=O)Nc2noc3cc(Cn4cccn4)ccc23)c1 | 4600
COc1cccc(OC)c1S(=O)(=O)Nc1noc2cc(Cc3cnn(C)c3)cc(OC)c12 | 6290
COc1cccc(OC)c1S(=O)(=O)Nc1noc2cc(Cn3cccn3)cc(OC3CC3)c12 | 5960
COc1cc(Cn2cccn2)cc2onc(NS(=O)(=O)c3cccc(F)c3Cl)c12 | 940

(I) COc1cc(Cn2cccn2)cc2onc(NS(=O)(=O)c3ccc(C)c(F)c3)c12
(II) COc1cc(Cn2cccn2)cc2onc(NS(=O)(=O)c3cc(C)c(F)c(C)c3)c12
(III) COc1cc(Cn2cccn2)cc2onc(NS(=O)(=O)c3c(F)cc(C)cc3F)c12
(IV) COc1cccc(F)c1S(=O)(=O)Nc1noc2cc(Cn3cccn3)cc(OC)c12
Ascending by Ki, please: list the compounds accordingly. Please list the labels according to the requested order. IV, I, III, II
(IV: 120 nM, I: 220 nM, III: 360 nM, II: 540 nM)

(P) COc1ccc(O)c(OC)c1S(=O)(=O)Nc1noc2cc(Cn3cccn3)cc(OC)c12
(Q) COc1cccc(OC)c1S(=O)(=O)Nc1noc2cc(Cc3ccon3)cc(OC)c12
Thinking about recorded Ki values, which is higher, P or Q ? Please reply using the label of the selected record. Q

(a) COC(=O)c1cccc(C)c1S(=O)(=O)Nc1noc2cc(Cn3cccn3)cc(OC)c12
(b) CCOc1cc(Cn2cccn2)cc2onc(NS(=O)(=O)c3c(OC)cccc3OC)c12
(c) COc1ccc(C(C)C)cc1S(=O)(=O)Nc1noc2cc(Cn3cccn3)cc(OC)c12
(d) COc1cc(Cn2cccn2)cc2onc(NS(=O)(=O)c3ccc(OC4CC4)cc3)c12
Which order do these items take when sorted by rising Ki? List them. Your answer should be the labels, listed in the requested order. c, d, b, a

====

# STUDY SYSTEM: KAT6B (Homo sapiens (Human))
# TEST PROTOCOL: KAT assay (SAMDI mass spectrometry), KAT6B
# Type: biochemical
# CONDITION NOTES: read-out: KAT6b Ki at 1 μM AcCoA; 1 μM AcCoA
pKi: −log10 of the molar value.
METRIC: pKi

Example compounds with recorded pKi:
COc1cccc(OC)c1S(=O)(=O)Nc1noc2cc(Cn3nccc3C)cc(OC)c12 | 8.06
COc1cc(Br)cc(OC)c1S(=O)(=O)Nc1noc2cc(Cn3cccn3)cc(OC)c12 | 8.24
COc1cccc(OC)c1S(=O)(=O)Nc1noc2cc(Cn3nccn3)cc(OC)c12 | 9.06

(P) COc1ccc(S(=O)(=O)Nc2noc3cc(Cn4cccn4)cc(OC)c23)c(OC)c1
(Q) COc1cccc(OC)c1S(=O)(=O)Nc1noc2cc(Cn3ccnn3)cc(OC)c12
(R) COc1cccc(OC)c1S(=O)(=O)Nc1noc2cc(Cn3cc(CO)cn3)cc(OC)c12
(S) CCc1ccc(OC)c(S(=O)(=O)Nc2noc3cc(Cn4cccn4)cc(OC)c23)c1
Order the 4 compounds from highest to lowest pKi. Thanks in advance for listing the labels in the requested order. S, P, Q, R
(S: 9.17, P: 8.57, Q: 7.88, R: 6.88)

(I) COc1cccc(F)c1S(=O)(=O)Nc1noc2cc(Cn3cccn3)cc(OC)c12
(II) COc1cccc(OC)c1S(=O)(=O)Nc1noc2cc(Cn3cccn3)cc(OC3CC3)c12
(III) COc1cccc(OC)c1S(=O)(=O)Nc1noc2cc(Cn3cc(F)cn3)cc(OC)c12
Sort the compounds on pKi; start with the lowest figure. Labels, requested order. III, II, I
(III: 7.55, II: 7.84, I: 8.60)

====

# STUDY SYSTEM: UniProt O95251
# TEST PROTOCOL: KAT assay (SAMDI mass spectrometry), KAT7;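 also: Baculovirus-expressed enzyme acetylating a histone peptide at room temperature, percent conversion from product and substrate peak areas, Ki from a Morrison tight-binding competitive fit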
# Assay type: biochemical
# CONDITION NOTES: read-out: KAT7 Ki at 1 μM AcCoA
pKi: −log10 of the molar value.
METRIC: pKi

COc1ccccc1S(=O)(=O)Nc1noc2cc(Cn3cccn3)c(C)cc12 [Example 132] | 6.91
COc1cc(Cn2cccn2)cc2onc(NS(=O)(=O)c3cc(F)ccc3C)c12 [Example 49] | 6.43
COc1cc(S(=O)(=O)Nc2noc3cc(Cn4cccn4)cc(OC)c23)ccc1F [Example 82] | 6.19
CCc1cc(S(=O)(=O)Nc2noc3cc(Cn4cccn4)cc(OC)c23)c(OC)cc1OC [Example 15] | 7.52
COc1cccc(OC)c1S(=O)(=O)Nc1noc2cc(Cn3cccn3)cc(F)c12 [Example 94] | 6.20

(P) COc1cccc(OC)c1S(=O)(=O)Nc1noc2cc(Cn3cccn3)c(C)cc12 [Example 27]
(Q) COc1cc(Cn2cccn2)cc2onc(NS(=O)(=O)c3ccc(C)c(C)c3)c12 [Example 72]
(R) COc1cccc(OC)c1S(=O)(=O)Nc1noc2cc(Cn3cccn3)cc(Cl)c12 [Example 33]
(S) COCc1ccccc1S(=O)(=O)Nc1noc2cc(Cn3cccn3)cc(OC)c12 [Example 67]
Order the entries by their reported pKi, beginning at the minimum. Would you mind listing the labels in the order requested? S, R, Q, P

(A) COc1cccc(OC)c1S(=O)(=O)Nc1noc2cc(Cn3cc(O)cn3)cc(OC)c12 [Example 105]
(B) COc1cc(Cn2cccn2)cc2onc(NS(=O)(=O)c3cc(F)cc(F)c3)c12 [Example 57]
(C) COc1cc(Cn2cccn2)cc2onc(NS(=O)(=O)c3cc(C)ccc3F)c12 [Example 58]
Put these in order: smallest pKi first, largest last. Quick reminder: the answer is the labels in the order asked. C, B, A
(C: 6.07, B: 6.35, A: 6.64)

====

# STUDY SYSTEM: KAT5 (Homo sapiens (Human), UniProt Q92993)
# Sequence (Q92993 whole entry): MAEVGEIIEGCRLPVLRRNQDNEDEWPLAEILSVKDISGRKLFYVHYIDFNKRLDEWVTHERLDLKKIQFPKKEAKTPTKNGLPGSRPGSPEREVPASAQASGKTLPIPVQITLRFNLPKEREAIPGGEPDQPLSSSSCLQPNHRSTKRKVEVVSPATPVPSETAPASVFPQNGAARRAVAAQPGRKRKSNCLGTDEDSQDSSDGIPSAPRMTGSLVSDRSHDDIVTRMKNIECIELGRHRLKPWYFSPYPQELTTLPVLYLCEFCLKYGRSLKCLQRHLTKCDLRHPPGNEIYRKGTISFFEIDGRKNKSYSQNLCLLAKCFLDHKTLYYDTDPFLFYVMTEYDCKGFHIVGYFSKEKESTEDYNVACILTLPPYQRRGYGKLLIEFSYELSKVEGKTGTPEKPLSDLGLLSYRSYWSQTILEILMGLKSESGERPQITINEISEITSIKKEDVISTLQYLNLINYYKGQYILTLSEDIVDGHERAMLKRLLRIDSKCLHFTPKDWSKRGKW
# TEST PROTOCOL: KAT assay (SAMDI mass spectrometry), KAT5
# Format: biochemical
# CONDITION NOTES: read-out: KAT5 Ki at 1 μM AcCoA
METRIC: Ki (nM)

The cases that follow already have their Ki on record.
COc1cc2c(cc1S(=O)(=O)Nc1noc3cc(Cn4cccn4)cc(OC)c13)CCC2 [Example 29] | 180
COc1cccc(OC)c1S(=O)(=O)Nc1noc2cc(Cn3cc(CO)cn3)cc(OC)c12 [Example 87] | 10800
COCc1ccc(OC)c(S(=O)(=O)Nc2noc3cc(Cn4cccn4)cc(OC)c23)c1 [Example 12] | 1170

(I) COc1cc(Cn2cccn2)cc2onc(NS(=O)(=O)c3c(C)ccc4cccnc34)c12 [Example 73]
(II) COc1cc(Cn2cccn2)cc2onc(NS(=O)(=O)c3cccc4c(C)ccnc34)c12 [Example 61]
(III) COc1cccc(OC)c1S(=O)(=O)Nc1noc2cc(Cn3cccn3)cc(C3CC3)c12 [Example 96]
(IV) COc1cc(Cn2cccn2)cc2onc(NS(=O)(=O)c3ccc(C)c(F)c3)c12 [Example 79]
(V) COc1cc(Cl)ccc1S(=O)(=O)Nc1noc2cc(Cn3cccn3)cc(OC)c12 [Example 71]
Order by Ki, ascending. Show the ranking through the labels, in the order asked for. II, V, I, IV, III
(II: 200 nM, V: 320 nM, I: 710 nM, IV: 1440 nM, III: 11700 nM)
